Target: Serine/threonine-protein kinase 17B (Homo sapiens)
Experiment: Inhibition of Alexa Fluor 647-labeled ATP competitive kinase tracer binding to GST-tagged DRAK2 (unknown origin) by FRET based cell free ATP-competitive tracer displacement assay
MEASURED_ATTRIBUTE: IC50

Past entries and their recorded results:
sample_smiles=COc1cc2c(-c3cnc(-c4ccc[nH]4)o3)c[nH]c2cc1Br result="9.8 µM"
sample_smiles=COc1cc(Br)cc2[nH]cc(-c3cnc(-c4ccc[nH]4)o3)c12 result="> 10 µM"
sample_smiles=COc1cc(Br)cc2[nH]cc(-c3oc(-c4ccc[nH]4)nc3I)c12 result="> 10 µM"

Could you now look at the following compound, please?
Query :: For the compound `COc1cc(Br)cc2[nH]cc(-c3cnc(-c4ccc(Br)[nH]4)o3)c12` , give its reported IC50.
Result :: > 10 µM

----------
Assay: Intrinsic clearance in mouse liver microsomes at 3 uM measured up to 50 mins by LC-MS analysis
Assay type: ADME, Microsome
Settings: read-out: CLH
MEASURED_ATTRIBUTE: microsomal CLint at 3 µM (µL/min/mg)
One number for each entry, in µL/min/mg.

Query :: Fill in reported microsomal CLint at 3 µM for this entry: `COc1cc2c(-c3cnc(-c4ccc[nH]4)o3)c[nH]c2cc1Br`
Result :: 47

----------
System: HepG2
Assay: Cytotoxicity in human HepG2 cells assessed as reduction in cell viability incubated for 72 hrs by SRB assay
Conditions: HepG2, 72 h
MEASURED_ATTRIBUTE: IC50 (µM)
Answers are plain numbers, in µM.

Query :: State its IC50: `COc1cc2c(-c3cnc(-c4ccc[nH]4)o3)c[nH]c2cc1Br`
Result :: 3

----------
Biological target: Cyclin-G-associated kinase (Homo sapiens, UniProt O14976)
Sequence (O14976 whole entry, the tested form may be a part): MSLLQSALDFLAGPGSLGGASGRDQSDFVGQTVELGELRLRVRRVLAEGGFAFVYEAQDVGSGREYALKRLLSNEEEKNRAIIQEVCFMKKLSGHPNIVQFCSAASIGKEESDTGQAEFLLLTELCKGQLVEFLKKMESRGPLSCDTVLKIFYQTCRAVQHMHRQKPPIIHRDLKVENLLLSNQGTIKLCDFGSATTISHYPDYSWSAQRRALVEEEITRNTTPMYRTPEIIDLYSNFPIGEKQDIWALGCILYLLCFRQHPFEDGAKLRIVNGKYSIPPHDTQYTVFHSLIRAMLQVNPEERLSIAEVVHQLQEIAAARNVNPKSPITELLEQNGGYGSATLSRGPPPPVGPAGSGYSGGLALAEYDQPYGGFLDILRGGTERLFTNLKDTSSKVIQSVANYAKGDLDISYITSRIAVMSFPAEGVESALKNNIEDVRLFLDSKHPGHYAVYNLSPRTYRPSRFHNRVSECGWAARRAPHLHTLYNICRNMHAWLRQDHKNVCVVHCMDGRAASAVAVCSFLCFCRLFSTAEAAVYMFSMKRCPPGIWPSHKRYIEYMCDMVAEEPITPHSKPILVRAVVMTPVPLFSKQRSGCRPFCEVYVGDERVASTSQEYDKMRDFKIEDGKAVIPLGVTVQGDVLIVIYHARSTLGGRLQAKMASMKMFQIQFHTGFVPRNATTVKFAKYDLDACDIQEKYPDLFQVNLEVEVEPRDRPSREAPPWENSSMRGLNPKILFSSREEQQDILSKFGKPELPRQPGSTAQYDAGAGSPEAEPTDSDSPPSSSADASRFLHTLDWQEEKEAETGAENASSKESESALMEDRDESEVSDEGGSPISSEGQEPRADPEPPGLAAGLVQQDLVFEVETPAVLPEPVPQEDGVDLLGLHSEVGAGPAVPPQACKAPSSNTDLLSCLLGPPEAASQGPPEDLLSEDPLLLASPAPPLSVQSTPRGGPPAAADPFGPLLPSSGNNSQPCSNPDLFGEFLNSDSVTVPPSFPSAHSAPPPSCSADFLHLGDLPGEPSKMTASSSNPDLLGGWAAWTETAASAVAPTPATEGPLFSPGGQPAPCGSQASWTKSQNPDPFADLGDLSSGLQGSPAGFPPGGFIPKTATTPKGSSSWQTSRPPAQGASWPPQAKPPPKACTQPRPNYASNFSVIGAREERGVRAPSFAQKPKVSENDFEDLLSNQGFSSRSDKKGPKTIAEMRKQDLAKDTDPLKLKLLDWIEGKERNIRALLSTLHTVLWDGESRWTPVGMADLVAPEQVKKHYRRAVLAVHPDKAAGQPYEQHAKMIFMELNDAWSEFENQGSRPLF
Test: Binding affinity to wild-type human partial length GAK (G13 to Y338 residues) expressed in bacterial expression system by active-site directed competition binding assay based Kinomescan method
MEASURED_ATTRIBUTE: Kd

Query :: Param request: Kd | system Cyclin-G-associated kinase (Homo sapiens, UniProt O14976) | item `COc1cc2c(-c3cnc(-c4ccc[nH]4)o3)c[nH]c2cc1Br`
Result :: 440 nM

----------
Molecular target: Casein kinase I isoform epsilon (Homo sapiens)
Sequence (P49674 whole entry, the tested form may be a part, canonical isoform): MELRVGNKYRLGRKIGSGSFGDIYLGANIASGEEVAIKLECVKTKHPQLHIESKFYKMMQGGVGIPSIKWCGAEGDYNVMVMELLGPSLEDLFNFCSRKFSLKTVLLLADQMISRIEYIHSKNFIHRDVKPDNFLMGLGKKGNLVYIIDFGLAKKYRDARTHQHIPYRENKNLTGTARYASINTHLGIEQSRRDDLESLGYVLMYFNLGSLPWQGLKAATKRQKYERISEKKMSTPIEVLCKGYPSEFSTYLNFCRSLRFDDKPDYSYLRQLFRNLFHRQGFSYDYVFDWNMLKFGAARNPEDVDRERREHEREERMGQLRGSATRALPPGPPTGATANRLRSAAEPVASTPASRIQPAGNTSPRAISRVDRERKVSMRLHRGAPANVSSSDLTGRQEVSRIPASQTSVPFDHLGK
Experiment: Binding affinity to wild-type human full length CSNK1E (M1 to K416 residues) expressed in bacterial expression system by active-site directed competition binding assay based Kinomescan method
MEASURED_ATTRIBUTE: pKd
Answers are plain numbers, as −log10 of the molar value.

Query :: Jot down pKd (Casein kinase I isoform epsilon (Homo sapiens)) of `COc1cc2c(-c3cnc(-c4ccc[nH]4)o3)c[nH]c2cc1Br` .
Result :: 5.48

----------
Molecular target: 1-phosphatidylinositol 3-phosphate 5-kinase (Homo sapiens)
Assay: Binding affinity to wild-type human partial length PIKFYVE (F1512 to C2098 residues) expressed in mammalian expression system by active-site directed competition binding assay based Kinomescan method
MEASURED_ATTRIBUTE: Kd (nM)
One number for each entry, in nM.

Query :: Provide measured Kd on 1-phosphatidylinositol 3-phosphate 5-kinase (Homo sapiens) for `COc1cc2c(-c3cnc(-c4ccc[nH]4)o3)c[nH]c2cc1Br` please.
Result :: 1000

----------
Assay: Cytotoxicity in human MT3 cells assessed as reduction in cell viability incubated for 72 hrs by SRB assay
Conditions: MT-3, 72 h
MEASURED_ATTRIBUTE: pIC50
Answers are plain numbers, as −log10 of the molar value.

Query :: Give pIC50 for the following compound: `COc1cc2c(-c3cnc(-c4ccc[nH]4)o3)c[nH]c2cc1Br`
Result :: 6.03

----------
Target: UniProt Q9NSY1
Test: Binding affinity to wild-type human partial length BIKE (S34 to N329 residues) expressed in bacterial expression system by active-site directed competition binding assay based Kinomescan method
MEASURED_ATTRIBUTE: pKd
Give bare numbers, as −log10 of the molar value.

Query :: Complete the entry with pKd for `COc1cc2c(-c3cnc(-c4ccc[nH]4)o3)c[nH]c2cc1Br`
Result :: 5.96

----------
Target: Serine/threonine-protein kinase pim-3 (Homo sapiens)
Would you mind telling me the reported IC50 of each entry?
Numbers only, in µM.

sample_smiles=COc1cc2c(-c3cnc(-c4ccc[nH]4)o3)c[nH]c2cc1Br measured_attribute=IC50 reading_unit=µM readout_number=1.8

Let us move to another entry and its IC50.
Query :: State, in one line, measured IC50 of `COc1cc(Br)cc2[nH]cc(-c3cnc(-c4ccc[nH]4)o3)c12`
Result :: 3.7

----------
Test: Stability in mouse liver microsomes supplemented with UDP-glucuronic acid assessed as parent compound remaining level at 5 uM incubated for 1 hr by LC-MS analysis
Assay type: ADME, Microsome
Details: read-out: Stability
MEASURED_ATTRIBUTE: remaining at 1 h, 5 µM (%)
Give bare numbers, in %.

Query :: Given `COc1cc2c(-c3cnc(-c4ccc[nH]4)o3)c[nH]c2cc1Br` , respond with its remaining at 1 h, 5 µM.
Result :: 100

----------
Molecular target: Mitogen-activated protein kinase kinase kinase 11 (Homo sapiens, UniProt Q16584)
Sequence (Q16584 whole entry): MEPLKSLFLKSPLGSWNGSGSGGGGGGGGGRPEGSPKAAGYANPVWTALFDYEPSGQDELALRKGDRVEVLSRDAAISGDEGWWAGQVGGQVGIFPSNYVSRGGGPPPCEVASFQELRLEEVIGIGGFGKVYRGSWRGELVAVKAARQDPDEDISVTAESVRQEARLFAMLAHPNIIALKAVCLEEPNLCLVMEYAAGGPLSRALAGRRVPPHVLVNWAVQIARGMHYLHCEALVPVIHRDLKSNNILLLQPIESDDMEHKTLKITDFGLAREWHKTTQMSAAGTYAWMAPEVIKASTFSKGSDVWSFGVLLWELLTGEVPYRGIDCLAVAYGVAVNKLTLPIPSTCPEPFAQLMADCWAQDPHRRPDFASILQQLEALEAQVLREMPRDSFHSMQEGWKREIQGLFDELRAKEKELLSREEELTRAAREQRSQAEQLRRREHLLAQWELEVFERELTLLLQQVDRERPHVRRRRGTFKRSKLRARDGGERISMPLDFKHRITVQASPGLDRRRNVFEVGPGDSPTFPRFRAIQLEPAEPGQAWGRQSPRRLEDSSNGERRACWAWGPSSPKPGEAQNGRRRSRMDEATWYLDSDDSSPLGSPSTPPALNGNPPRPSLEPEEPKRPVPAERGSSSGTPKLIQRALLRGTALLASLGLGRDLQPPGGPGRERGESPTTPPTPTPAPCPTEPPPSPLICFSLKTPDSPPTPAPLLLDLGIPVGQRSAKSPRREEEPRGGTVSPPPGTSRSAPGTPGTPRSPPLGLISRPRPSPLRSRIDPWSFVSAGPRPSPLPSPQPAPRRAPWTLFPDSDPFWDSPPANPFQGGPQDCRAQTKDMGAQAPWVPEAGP
Assay: Inhibition of MLK3 (unknown origin) by [33P]-ATP filter binding kinase assay
MEASURED_ATTRIBUTE: pIC50
Numbers only, as −log10 of the molar value.

Please review the entries below; each comes with its answer.
sample_smiles=COc1cc(Br)cc2[nH]cc(-c3cnc(-c4cc(Br)c[nH]4)o3)c12 readout_number=4.64
sample_smiles=COc1cc(Br)cc2[nH]cc(-c3cnc(-c4ccc[nH]4)o3)c12 readout_number=6.30

Dear colleague, could you please provide pIC50 for the compounds listed below?
1. COc1cc(Br)cc2[nH]c(I)c(-c3cnc(-c4ccc[nH]4)o3)c12
2. COc1cc2c(-c3cnc(-c4ccc[nH]4)o3)c[nH]c2cc1Br

Result ::
4.72
6.22

----------
For each entry below, report its pIC50 value.
Biological target: Mitogen-activated protein kinase kinase kinase 9 (Homo sapiens)
Sequence (P80192 whole entry): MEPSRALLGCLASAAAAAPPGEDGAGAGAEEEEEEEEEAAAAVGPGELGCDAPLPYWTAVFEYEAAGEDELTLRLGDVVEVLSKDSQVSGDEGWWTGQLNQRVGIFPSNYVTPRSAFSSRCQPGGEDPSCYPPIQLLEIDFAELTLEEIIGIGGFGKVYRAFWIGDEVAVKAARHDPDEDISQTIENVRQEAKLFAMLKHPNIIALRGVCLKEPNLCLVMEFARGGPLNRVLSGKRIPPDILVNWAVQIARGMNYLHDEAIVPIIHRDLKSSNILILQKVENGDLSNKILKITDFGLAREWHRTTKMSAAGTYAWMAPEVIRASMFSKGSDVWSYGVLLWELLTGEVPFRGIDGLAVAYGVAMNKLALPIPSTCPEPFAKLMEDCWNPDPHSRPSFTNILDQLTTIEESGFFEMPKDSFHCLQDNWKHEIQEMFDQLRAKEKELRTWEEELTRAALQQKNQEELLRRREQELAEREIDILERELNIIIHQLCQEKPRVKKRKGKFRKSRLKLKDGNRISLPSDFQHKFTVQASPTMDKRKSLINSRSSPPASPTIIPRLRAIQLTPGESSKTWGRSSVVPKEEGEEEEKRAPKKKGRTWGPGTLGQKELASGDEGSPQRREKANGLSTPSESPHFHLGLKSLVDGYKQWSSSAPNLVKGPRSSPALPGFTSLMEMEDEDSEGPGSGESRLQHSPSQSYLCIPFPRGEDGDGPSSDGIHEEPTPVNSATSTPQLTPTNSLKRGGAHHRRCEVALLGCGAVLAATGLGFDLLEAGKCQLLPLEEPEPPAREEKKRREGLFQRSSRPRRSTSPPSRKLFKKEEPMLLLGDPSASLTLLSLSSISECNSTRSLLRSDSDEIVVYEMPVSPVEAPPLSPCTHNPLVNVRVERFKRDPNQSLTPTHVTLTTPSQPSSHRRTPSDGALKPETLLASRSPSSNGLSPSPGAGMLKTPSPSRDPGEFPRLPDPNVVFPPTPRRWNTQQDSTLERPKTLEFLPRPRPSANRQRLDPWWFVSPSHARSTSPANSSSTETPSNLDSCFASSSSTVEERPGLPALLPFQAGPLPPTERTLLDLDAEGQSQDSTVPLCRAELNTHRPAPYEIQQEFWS
Assay: Inhibition of MLK1 (unknown origin) by [33P]-ATP filter binding kinase assay
Give bare numbers, as −log10 of the molar value.

sample_smiles=COc1cc2c(-c3cnc(-c4ccc[nH]4)o3)c[nH]c2cc1Br assay_system="Mitogen-activated protein kinase kinase kinase 9 (Homo sapiens)" readout_number=6.22
sample_smiles=COc1cc(Br)cc2[nH]cc(-c3cnc(-c4cc(Br)c[nH]4)o3)c12 assay_system="Mitogen-activated protein kinase kinase kinase 9 (Homo sapiens)" readout_number=4.66
sample_smiles=COc1cc(Br)cc2[nH]cc(-c3cnc(-c4ccc[nH]4)o3)c12 assay_system="Mitogen-activated protein kinase kinase kinase 9 (Homo sapiens)" readout_number=6.05

Now look at this one.
Query :: Identify pIC50 associated with the molecule `COc1cc(Br)cc2[nH]c(I)c(-c3cnc(-c4ccc[nH]4)o3)c12`
Result :: 4.68

----------
Hi there, I'd appreciate the recorded IC50 for every entry that follows.
Target: Serine/threonine-protein kinase SIK3 (Homo sapiens, UniProt Q9Y2K2)
Sequence (Q9Y2K2 whole entry): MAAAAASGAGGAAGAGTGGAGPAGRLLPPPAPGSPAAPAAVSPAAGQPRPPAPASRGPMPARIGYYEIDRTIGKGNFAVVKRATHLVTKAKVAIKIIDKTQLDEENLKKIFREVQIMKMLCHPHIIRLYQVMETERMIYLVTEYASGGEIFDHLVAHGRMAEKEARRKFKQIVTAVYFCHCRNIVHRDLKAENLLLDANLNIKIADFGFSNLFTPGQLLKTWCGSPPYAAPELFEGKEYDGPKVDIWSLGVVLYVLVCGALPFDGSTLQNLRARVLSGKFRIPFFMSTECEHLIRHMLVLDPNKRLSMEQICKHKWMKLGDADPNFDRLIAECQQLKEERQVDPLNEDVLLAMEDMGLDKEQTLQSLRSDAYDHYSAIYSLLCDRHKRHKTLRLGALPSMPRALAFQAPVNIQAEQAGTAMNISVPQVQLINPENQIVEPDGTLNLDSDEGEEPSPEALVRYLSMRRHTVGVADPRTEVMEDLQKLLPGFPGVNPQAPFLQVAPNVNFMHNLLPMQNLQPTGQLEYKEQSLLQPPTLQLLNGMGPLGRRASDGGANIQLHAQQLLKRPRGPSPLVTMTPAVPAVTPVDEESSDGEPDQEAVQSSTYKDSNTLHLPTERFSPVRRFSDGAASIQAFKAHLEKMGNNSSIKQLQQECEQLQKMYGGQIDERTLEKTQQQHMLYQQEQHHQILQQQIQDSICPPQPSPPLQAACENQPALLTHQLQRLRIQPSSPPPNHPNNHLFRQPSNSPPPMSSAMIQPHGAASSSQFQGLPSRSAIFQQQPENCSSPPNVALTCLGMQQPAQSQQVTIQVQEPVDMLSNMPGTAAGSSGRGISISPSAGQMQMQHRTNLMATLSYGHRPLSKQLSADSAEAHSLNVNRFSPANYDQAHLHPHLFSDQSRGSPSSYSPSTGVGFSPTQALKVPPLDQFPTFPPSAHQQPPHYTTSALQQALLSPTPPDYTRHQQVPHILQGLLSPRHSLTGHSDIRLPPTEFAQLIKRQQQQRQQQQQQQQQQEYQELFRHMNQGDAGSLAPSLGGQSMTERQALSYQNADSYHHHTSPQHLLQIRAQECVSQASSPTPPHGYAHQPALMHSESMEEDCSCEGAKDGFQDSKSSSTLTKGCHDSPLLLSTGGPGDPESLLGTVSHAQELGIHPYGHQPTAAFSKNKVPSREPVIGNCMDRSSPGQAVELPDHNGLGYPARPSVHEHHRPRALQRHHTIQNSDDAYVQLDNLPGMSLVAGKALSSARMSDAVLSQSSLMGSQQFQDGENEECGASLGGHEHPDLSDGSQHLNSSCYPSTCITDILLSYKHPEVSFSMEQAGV

Provide each entry's IC50 from the list below.
1. COc1cc(Br)cc2[nH]cc(-c3cnc(-c4ccc[nH]4)o3)c12
2. COc1cc2c(-c3cnc(-c4ccc[nH]4)o3)c[nH]c2cc1Br
3. COc1cc(Br)cc2[nH]cc(-c3oc(-c4ccc[nH]4)nc3I)c12

Result ::
> 10 µM
1.2 µM
> 10 µM

Query :: Enter IC50 (test system Serine/threonine-protein kinase SIK3 (Homo sapiens, UniProt Q9Y2K2)) for `COc1cc(Br)cc2[nH]c(I)c(-c3cnc(-c4ccc[nH]4)o3)c12`
Result :: > 10 µM

----------
Molecular target: Serine/threonine-protein kinase 17B (Homo sapiens)
Assay: Binding affinity to wild-type human full length DRAK2 (M1 to C372 residues) expressed in bacterial expression system by active-site directed competition binding assay based Kinomescan method
MEASURED_ATTRIBUTE: Kd (nM)
Give bare numbers, in nM.

Query :: Kindly indicate its recorded Kd. Item: `COc1cc2c(-c3cnc(-c4ccc[nH]4)o3)c[nH]c2cc1Br`
Result :: 390

----------
Here's a batch of compounds along with measured IC50 for Serine/threonine-protein kinase pim-2 (Homo sapiens, UniProt Q9P1W9).

sample_smiles=COc1cc2c(-c3cnc(-c4ccc[nH]4)o3)c[nH]c2cc1Br assay_system="Serine/threonine-protein kinase pim-2 (Homo sapiens, UniProt Q9P1W9)" measured_attribute=IC50 result="11 µM"

Next:
Query :: Output measured IC50 for this item: `COc1cc(Br)cc2[nH]cc(-c3oc(-c4ccc[nH]4)nc3I)c12`
Result :: > 10 µM

----------
Test: Stability in mouse plasma assessed as parent compound remaining level at 5 uM incubated for 1 hr by LC-MS analysis
Type: ADME, cell-free
Conditions: read-out: Stability
MEASURED_ATTRIBUTE: remaining at 1 h, 5 µM (%)
Numbers only, in %.

Query :: Using the record for `COc1cc2c(-c3cnc(-c4ccc[nH]4)o3)c[nH]c2cc1Br` , state its measured remaining at 1 h, 5 µM.
Result :: 84

Data origin: ChEMBL document CHEMBL4334516
